Numbers sourced from patent US20260070976A1.

# target: recombinant human PILRA (human, UniProt Q9UKJ1 20-197)
# Sequence (Q9UKJ1 20-197 limits assumed): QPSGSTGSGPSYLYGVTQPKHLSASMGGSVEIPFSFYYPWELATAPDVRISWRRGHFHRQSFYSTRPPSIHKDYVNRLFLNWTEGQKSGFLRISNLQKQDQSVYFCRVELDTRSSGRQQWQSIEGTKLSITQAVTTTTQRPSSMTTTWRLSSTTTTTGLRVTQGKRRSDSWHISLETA
# assayName: SPR, Carterra LSA, antibody amine-coupled, kinetic fit
Here the recorded Kd is given for each entry.
parameterMeasured: Kd (nM)

[[record]]
binder = "X4 (antibody, human IgG4, V domains shown) VH: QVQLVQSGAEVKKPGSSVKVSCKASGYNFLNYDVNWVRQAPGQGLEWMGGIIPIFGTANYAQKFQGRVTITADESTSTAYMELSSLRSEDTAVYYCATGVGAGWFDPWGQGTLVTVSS VL: DIVMTQSPDSLAVSLGERATINCKSSQSVYFSPNNKNYLAWYQQKPGQPPKLLIYWASTRESGVPDRFSGSGSGTDFTLTISSLQAEDVAVYYCQQYFEEPYTFGQGTRLEIK"
parametermeasured = "Kd"
unitname = "nM"
observedresult = 12

[[record]]
binder = "X14 (antibody, human IgG4, V domains shown, conditioned media in the HEK293F assays) VH: QVQLVQSGAEVKKPGSSVKVSCKASGYNFLHYDVNWVRQAPGQGLEWMGGIIPIFGTANYAQKFQGRVTITADESTSTAYMELSSLRSEDTAVYYCATAVGAGWFDTWGQGTLVTVSS VL: DIVMTQSPDSLAVSLGERATINCKSSQSVYFSPNNKNYLAWYQQKPGQPPKLLIYWASTRESGVPDRFSGSGSGTDFTLTISSLQAEDVAVYYCQQYFEEPYTFGQGTRLEIK"
parametermeasured = "Kd"
unitname = "nM"
observedresult = 1.1

[[record]]
binder = "X17 (antibody, human IgG4, V domains shown) VH: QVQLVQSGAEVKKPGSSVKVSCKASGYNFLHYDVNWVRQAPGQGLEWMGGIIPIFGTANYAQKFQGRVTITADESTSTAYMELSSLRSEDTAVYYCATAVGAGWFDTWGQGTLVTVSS VL: DIVMTQSPDSLAVSLGERATINCKSSQSVFFDENNKNYLAWYQQKPGQPPKLLIYWASTRESGVPDRFSGSGSGTDFTLTISSLQAEDVAVYYCQQYFEEPYTFGQGTRLEIK"
parametermeasured = "Kd"
unitname = "nM"
observedresult = 0.4

